- assay-procedure: NCI Yeast Anticancer Drug Screen. Data for the sgs1 mgt1 strain (AID 161);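 further: 0% = growth of cultures given vehicle only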
- run-conditions: S. cerevisiae sgs1 mgt1 strain, at 50.0 µM (retest, dose inferred, filed as 5.0), active compounds read high
About 79,000 compounds went through this panel and 15% of them were active in at least one assay; those are over-represented in the sample as a whole.
experimental-endpoint: growth inhibition (%)
Report the value in % with no unit label.

Task: Any idea what growth inhibition was measured for `O=S1(=O)CC=C1c1ccccc1` ?
Result: 89

Task: Any idea what growth inhibition was measured for CC(C)C1=CC23CCC4C(C)(C(=O)O)CCCC4(C)C2CC1C1C(=O)C=CC(=O)C13 (centres undefined) ?
Result: 97

Task: Any idea what growth inhibition was measured for `COCc1ccc([N+](=O)[O-])o1` ?
Result: 76

Task: Any idea what growth inhibition was measured for `FC(F)(F)c1ccccc1NC(=S)SCc1ccco1` ?
Result: 45

Task: Any idea what growth inhibition was measured for `O=C(Sc1c(-c2ccccc2)c(=O)n(-c2ccccc2)c(=S)n1-c1ccccc1)c1cccs1` ?
Result: 93

Task: Any idea what growth inhibition was measured for Cc1ccc(S(=O)(=O)OC2C(C)OCOC(C)C2OS(=O)(=O)c2ccc(C)cc2)cc1 (centres undefined) ?
Result: -17

Task: Any idea what growth inhibition was measured for `COc1ccc(C(=O)Cc2ccc(Cl)cc2)cc1OC` ?
Result: -17

Task: Any idea what growth inhibition was measured for `O=C1CN(/N=C\c2ccc([N+](=O)[O-])o2)C(=O)N1` ?
Result: 39

Task: Any idea what growth inhibition was measured for CC(=O)SC1C(=O)N(C)C(SC(C)=O)C(=O)N1C (centres undefined) ?
Result: 55

Task: Any idea what growth inhibition was measured for `Clc1cc(Cl)c2cc3cccc[n+]3cc2c1Cl` ?
Result: -18

Task: Any idea what growth inhibition was measured for `CCN(CC)CCOc1c(I)cc(I)cc1I` ?
Result: 99

Task: Any idea what growth inhibition was measured for `C=C1C(=O)O[C@@H]2CC(CO)=C([C@@H](C)CCCO)[C@@H](OC(=O)/C(C)=C\C)[C@H]12` ?
Result: 25

Task: Any idea what growth inhibition was measured for O=[N+]([O-])C1=Cc2cc(Cl)ccc2OC1c1cccc2ccccc12 (centres undefined) ?
Result: 86

Task: Any idea what growth inhibition was measured for CC(C(=O)c1ccc2cc(Br)c3ccccc3c2c1)N(C)C (centres undefined) ?
Result: 100

Task: Any idea what growth inhibition was measured for `N#CSC#CCCC#CSC#N` ?
Result: 100

Task: Any idea what growth inhibition was measured for `Clc1ccc(-c2nnn3ccccc23)cc1` ?
Result: 12

Task: Any idea what growth inhibition was measured for O=C(CC(O)(c1ccccc1)c1ccc(Cl)cc1)NC(=O)c1ccccc1O (centres undefined) ?
Result: 97

Task: Any idea what growth inhibition was measured for `O=S(=O)(Nc1ccc2c3c(cccc13)C=C2)c1ccccc1` ?
Result: 97

Task: Any idea what growth inhibition was measured for COc1ccc(C2c3cc4c(cc3OC(N3CCCC3)C2C)OCO4)c(OC)c1 (centres undefined) ?
Result: 74

Task: Any idea what growth inhibition was measured for `c1ccc(N=Nc2n[nH]c3ccccc23)cc1` ?
Result: 85

Task: Any idea what growth inhibition was measured for `O=C1CSC(=S)N1c1ccc(F)cc1F` ?
Result: 78

Task: Any idea what growth inhibition was measured for `O=C1c2ccccc2CN1Cc1ccc(Cl)c(Cl)c1` ?
Result: 96

Task: Any idea what growth inhibition was measured for `CN(C)CC/C(=N\Nc1ccc(Cl)c(Cl)c1)c1ccccc1` ?
Result: 100

Task: Any idea what growth inhibition was measured for `CCCCCCCCCCCCCCCC[N+](C)(C)c1ccccc1` ?
Result: 99
